Substrate: O=C1CCC/C1=C\c1ccccc1
Assay: purified protein
Type: biochemical, Bacillus subtilis
Conditions: 1.0 mM NADPH, 10 μM enzyme, PBS 100 mM, pH 7.5, 30 °C
Please provide measured kcat for the entries that follow.
Just the number please, in s⁻¹, no unit attached.

Task: For the protein YqjM (Bacillus subtilis subsp. subtilis str. 168) (protein, ene-reductase, FMN enzyme) ARKLFTPITIKDMTLKNRIVMSPMCMYSSHEKDGKLTPFHMAHYISRAIGQVGLIIVEASAVNPQGRITDQDLGIWSDEHIEGFAKLTEQVKEQGSKIGIQLAHAGRKAELEGDIFAPSAIAFDEQSATPVEMSAEKVKETVQEFKQAAARAKEAGFDVIEIHAAHGYLIHEFLSPLSNHRTDEYGGSPENRYRFLREIIDEVKQVWDGPLFVRVSASDYTDKGLDIADHIGFAKWMKEQGVDLIDCSSGALVHADINVFPGYQVSFAEKIREQADMATGAVGMITDGSMAEEILQNGRADLIFIGRELLRDPFFARTAAKQLNTEIPAPVQYERGW , give its measured kcat value.
Result: 0.23

Task: Provide one value: measured kcat of YqjM (Bacillus subtilis subsp. subtilis str. 168; C26G/I69Y) (protein, ene-reductase, FMN enzyme) ARKLFTPITIKDMTLKNRIVMSPMGMYSSHEKDGKLTPFHMAHYISRAIGQVGLIIVEASAVNPQGRYTDQDLGIWSDEHIEGFAKLTEQVKEQGSKIGIQLAHAGRKAELEGDIFAPSAIAFDEQSATPVEMSAEKVKETVQEFKQAAARAKEAGFDVIEIHAAHGYLIHEFLSPLSNHRTDEYGGSPENRYRFLREIIDEVKQVWDGPLFVRVSASDYTDKGLDIADHIGFAKWMKEQGVDLIDCSSGALVHADINVFPGYQVSFAEKIREQADMATGAVGMITDGSMAEEILQNGRADLIFIGRELLRDPFFARTAAKQLNTEIPAPVQYERGW
Result: 1.59
